// provenance: paper PMC5603853

- Procedure summary: Pharmacokinetic study after oral administration
- Type: in vivo
- Test conditions: rat, plasma; oral 20 mg/Kg, female Wistar rats; read-out: t1/2 β (converted)

{"Molecule": "CS(=O)(=O)c1ccc(-c2cc(C(=O)O)c3cccc(C(=O)c4ccccc4)c3n2)cc1 [AZGH 102]", "Unit name": "min", "half-life": 223}

* * *

- Procedure summary: Pharmacokinetic study after oral administration
- Assay type: in vivo
- Test conditions: rat, plasma; oral 20 mg/Kg, male Wistar rats
Readout label: Tmax (min)

{"Cpd smiles": "CS(=O)(=O)c1ccc(-c2cc(C(=O)O)c3cccc(C(=O)c4ccccc4)c3n2)cc1", "Readout label": "Tmax", "Data value": 30}
